Below, each entry is listed alongside its reported protein stability index.
B1: KLHL14 (parent)
chain: NETGYLSSVECYNLETNEWRYVSS

Variants of: B1
Experiment description: protein stability index of a GFP-peptide fusion (GPS, HEK-293T) (PSI 1-6); higher = more stable;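 note: lentivirally expressed fusions sorted by FACS into six bins by GFP to DsRed ratio, PSI derived from sequencing read proportions per bin multiplied by bin number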
Condition: c terminus: a fixed tail appended
Value kind: protein stability index

{"Sequence input": "NETGYLSSVECYNLETNEPRYVSS [W19P]", "Observed measurement": 3.66}
{"Sequence input": "NEWGYLSSVECYNLETNEWRYVSS [T3W]", "Observed measurement": 2.53}
{"Sequence input": "NEGGYLSSVECYNLETNEWRYVSS [T3G]", "Observed measurement": 3.01}
{"Sequence input": "NETGYESSVECYNLETNEWRYVSS [L6E]", "Observed measurement": 4.29}
{"Sequence input": "NETGYLSSVECYNLCTNEWRYVSS [E15C]", "Observed measurement": 2.34}
{"Sequence input": "NETGYLSSVTCYNLETNEWRYVSS [E10T]", "Observed measurement": 2.98}
